Hey, just so you know, these numbers are from patent US20200392116A1.

- METHOD_NOTES: Potency code of Table 2 (assay not stated)
READOUT: Potency code

Could you share which Potency code value was measured for "Cn1nc(C(F)(F)F)cc1-c1ccc(OCc2ccc(Cl)cc2)c(-c2cccc(C(F)(F)F)c2)c1O" ?
+ (>40 +)

Could you share which Potency code value was measured for "Oc1cc(Nc2ccc(-n3ccnc3)cc2)ccc1-c1cc(C(F)(F)F)[nH]n1" ?
+ (>40 +)

###

- METHOD_NOTES: Potency code of Table 2 (assay not stated)
READOUT: Potency code

Solved entries:
Could you share which Potency code value was measured for "Oc1cc(OCc2ccccc2)ccc1-c1n[nH]cc1Oc1ccccc1" ?
+ (>40 +)

Could you share which Potency code value was measured for "CN1CCN(c2ccc(-c3cc(C(F)(F)F)[nH]n3)c(O)c2)CC1" ?
+ (>40 +)

Could you share which Potency code value was measured for "Cn1nc(C(F)(F)F)cc1-c1ccc(OCc2ccc(Cl)cc2)c(Br)c1O" ?
+++ (10-30 +++)

Could you share which Potency code value was measured for "CCCc1c(OCc2ccc(Cl)cc2)ccc(-c2cc(C(F)(F)F)n[nH]2)c1O" ?
+ (>40 +)

Could you share which Potency code value was measured for "Oc1c(-c2cc(C(F)(F)F)n[nH]2)ccc(OCc2ccc(Cl)cc2)c1-c1cncc(C(F)(F)F)c1" ?
+++ (10-30 +++)

New cases:
Could you share which Potency code value was measured for "CCc1nn(C)c(-c2ccc(OCc3ccc(Cl)cc3)cc2O)c1-c1cccc(OC)c1" ?
+ (>40 +)

Could you share which Potency code value was measured for "Cn1nc(C(F)(F)F)cc1-c1ccc(OCc2ccc(Cl)cc2)cc1Cl" ?
+ (>40 +)

Could you share which Potency code value was measured for "CCc1ccc(Oc2c(-c3ccc(OCCc4ccc(Cl)cc4)cc3O)nn(C)c2C(F)(F)F)cc1" ?
+ (>40 +)

Could you share which Potency code value was measured for C#CCC(N=[N+]=[N-])C(=O)NCCCOc1ccc(-c2cc(C(F)(F)F)nn2C)c(O)c1-c1ccc(Cl)c(C(F)(F)F)c1 (stereo not shown) ?
+ (>40 +)

###

- METHOD_NOTES: Potency code of Table 2 (assay not stated)
READOUT: Potency code

Could you share which Potency code value was measured for "COc1cccc(-c2c(C(F)(F)F)nn(C)c2-c2ccc(OCc3ccc(Cl)cc3)cc2O)c1" ?
+ (>40 +)

Could you share which Potency code value was measured for "Cn1nc(C(F)(F)F)cc1-c1ccc(OCc2ccc(Cl)cc2)c(-c2ccccc2OC(F)(F)F)c1O" ?
+ (>40 +)

Could you share which Potency code value was measured for "CCc1c(OCc2ccc(Cl)cc2)ccc(-c2cc(C(F)(F)F)n[nH]2)c1O" ?
+ (>40 +)

Could you share which Potency code value was measured for "Cn1nc(C(F)(F)F)cc1-c1ccc(OCc2ccc(Cl)cc2)c(-c2ccc(C#N)cc2)c1O" ?
+ (>40 +)

With those in mind, consider the next molecule.
Could you share which Potency code value was measured for "Cc1ccc(-c2c[nH]nc2-c2ccc(OCc3ccc(Cl)cc3)cc2O)cc1" ?
+ (>40 +)

###

- METHOD_NOTES: In vitro metabolism with mouse liver microsomes
- Type: in vitro ADME
- SETUP_CONDITIONS: % remaining of compound after 60 min treatment with mouse liver microsomes
- Experimental: In vitro metabolism of NUCC-176242 and NUCC-176248 were tested using mouse liver microsomes and a mouse S9 fraction. (See FIG. 9).
Reported MLM % at 60 min by item:
# number only, unit % dropped from output

Solved entries:
Could you share which MLM % at 60 min value was measured for CCCCOc1ccc(-c2cc(C(F)(F)F)n(C)n2)c(O)c1-c1cncc(C(F)(F)F)c1 [NUCC-0201209] ?
10.3

Could you share which MLM % at 60 min value was measured for Cn1nc(C(F)(F)F)cc1-c1ccc(OCc2ccc(Cl)cc2)cc1C=O [NUCC-0200976] ?
21.8

Could you share which MLM % at 60 min value was measured for CCCCCCOc1ccc(-c2cc(C(F)(F)F)n[nH]2)c(O)c1-c1cc(C(F)(F)F)cc(C(F)(F)F)c1 [NUCC-0201196] ?
66.6

Could you share which MLM % at 60 min value was measured for CCCCCCOc1ccc(-c2cc(C(F)(F)F)nn2C)c(O)c1-c1cncc(C#N)c1 [NUCC-0201207] ?
52.7

Could you share which MLM % at 60 min value was measured for Oc1c(-c2cc(C(F)(F)F)n[nH]2)ccc(OCCN2CCCC2)c1-c1cc(C(F)(F)F)cc(C(F)(F)F)c1 [NUCC-0201032] ?
30.5

Could you share which MLM % at 60 min value was measured for CCc1c(OCc2ccc(Cl)cc2)ccc(-c2cc(C(F)(F)F)n[nH]2)c1O [NUCC-0200739] ?
46.4

Could you share which MLM % at 60 min value was measured for Oc1c(-c2cc(C(F)(F)F)[nH]n2)ccc(Oc2ccc(Cl)cc2)c1-c1cc(C(F)(F)F)cc(C(F)(F)F)c1 [NUCC-0201223] ?
75.8

Could you share which MLM % at 60 min value was measured for Cn1nc(C(F)(F)F)cc1-c1ccc(OCc2ccc(Cl)cc2)c(-c2cc(C(F)(F)F)cc(C(F)(F)F)c2)c1O [NUCC-0196361] ?
72.9

New cases:
Could you share which MLM % at 60 min value was measured for Oc1c(-c2cc(C(F)(F)F)[nH]n2)ccc(OCc2ccc(Cl)cc2)c1-c1ccccc1Cl [NUCC-0196363] ?
88.6

Could you share which MLM % at 60 min value was measured for CCOC(=O)c1cc(-c2ccc(OCc3ccc(Cl)cc3)c(-c3cc(C(F)(F)F)cc(C(F)(F)F)c3)c2O)n[nH]1 [NUCC-0200972] ?
60.3

Could you share which MLM % at 60 min value was measured for COc1cccc(-c2c(-c3ccc(OCc4ccc(Cl)cc4)cc3O)n[nH]c2C(F)(F)F)c1 [NUCC-0198309] ?
74

Could you share which MLM % at 60 min value was measured for Cn1nc(C(F)(F)F)cc1-c1ccc(OCc2ccc(Cl)cc2)c(-c2cccc(C#N)c2)c1O [NUCC-0198399] ?
80.3

Could you share which MLM % at 60 min value was measured for Oc1cc(OCc2ccc(Cl)cc2)ccc1-c1n[nH]c(C(F)(F)F)c1Oc1ccccc1Cl [NUCC-0196342] ?
87.4
